# System: COLO 205 colon
# experiment.notes: NCI tumour cell line growth inhibition, 48 h
Binary classification by TGI, with 30 µM as an inclusive lower bound for rule met; all other cases are rule not met.

compound="COc1cccc(C2c3cc4c(cc3OC(N3CCOCC3)C2C)OCO4)c1O (configuration not stated)" class_assignment="rule not met"
compound="CCN(CC)CC(C)Nc1ccc(C)c2sc3ccccc3c(=O)c12 (configuration not stated)" class_assignment="rule not met"
compound=CCOC(=O)c1c2ccc(/C=C/C(=O)OC)ccc-2c(C(=O)OCC)c1N class_assignment="rule met"
compound="CC(SC1=CC(=O)c2c(O)ccc(O)c2C1=O)C(=O)O (configuration not stated)" class_assignment="rule met"
compound=Clc1ccc(OCc2nnc(CCCCCCCCc3nnc(COc4ccc(Cl)cc4Cl)o3)o2)c(Cl)c1 class_assignment="rule met"
compound=Brc1ccc2c(c1)C1=C(CO2)Cc2ccccc2O1 class_assignment="rule met"
compound="CCCCS(=N)(=O)CC[C@H](N)C(=O)O (some centres not stated)" class_assignment="rule met"
compound=C=C1C(=O)O[C@H]2[C@H]1CC/C(COC(=O)c1ccc(C(=O)O)s1)=C\CC[C@@]1(C)O[C@@H]21 class_assignment="rule not met"
compound=N#C/C(=C(\O)C(=O)O)c1ccc(-c2cccc3ccccc23)cc1 class_assignment="rule met"
compound=CCc1ccc(C2=C(O)C(=O)C(c3ccc(CC)cc3)=C(O)C2=O)cc1 class_assignment="rule not met"
compound=O=C(/C=C/c1ccc([N+](=O)[O-])o1)NNC(=O)c1cc2ccccc2cc1O class_assignment="rule not met"
compound=CCCCCCCCOCC1S(=O)(=O)OCCOS1(=O)=O class_assignment="rule met"
compound=CCCCNC(=S)Nc1nc(C(=O)NNS(=O)(=O)c2ccccc2)cs1 class_assignment="rule met"
compound=O=C1/C(=C\c2cccs2)Oc2ccccc21 class_assignment="rule met"
compound="COc1ccc([N+](=O)[O-])c2c(NCC(O)CO)ccnc12 (configuration not stated)" class_assignment="rule met"
compound=COc1cccc(-c2cc(=O)c3cc(C)cnc3[nH]2)c1 class_assignment="rule not met"
compound=CN(C)CCNC(=O)c1cccc(CO)c1[N+](=O)[O-] class_assignment="rule met"
compound=O=C1OCC2=Nc3cccc4cccc(c34)N12 class_assignment="rule met"
compound="COC(=O)C(Cc1ccccc1)NC(=O)CNC(=O)CSc1nnc(COc2ccc(Cl)cc2)n1-c1ccccc1 (configuration not stated)" class_assignment="rule met"
compound="N#CC1C(N)=NNC1c1ccc(-c2ccc(-c3nc4ccccc4o3)cc2)o1 (configuration not stated)" class_assignment="rule met"

====

# Test system: MDA-MB-435
# experiment.notes: NCI tumour cell line growth inhibition, 48 h
Reported TGI values for a set of compounds
experimental.readout: TGI

structure_smiles_string=Nc1cc(CO)cc(Nc2c3ccccc3nc3occc23)c1 result="41.9 µM"
structure_smiles_string=O=C(N/N=C/c1ccc(F)cc1)c1[nH]c2ccc(I)cc2c1-c1ccccc1 result="0.348 µM"
structure_smiles_string=CN(C)c1ccc(/C=C2\N=C(c3ccccc3)N(c3nc4c(Cl)cc(Cl)cc4s3)C2=O)cc1 result="67.6 µM"
structure_smiles_string=OCCCNCc1ccccn1 result="> 100 µM"
structure_smiles_string=ClCCn1cnc2c(SCc3ccccc3)ncnc21 result="> 100 µM"
structure_smiles_string=O=S1(=O)c2ccccc2N2CCCc3cc(Cl)cc1c32 result="> 100 µM"

====

# System: HCC-2998 colon
# experiment.notes: NCI tumour cell line growth inhibition, 48 h
Reported TGI values for a set of compounds
experimental.readout: TGI (µM)

compound=Cn1cnc([N+](=O)[O-])c1Sc1ncnc2nc[nH]c12 uom=µM limit_qualifier=> numeric_value=100
compound=CC(C)(C)C([O-])=C1C(=O)c2ccccc2C1=O.CC(C)(C)C([O-])=C1C(=O)c2ccccc2C1=O.CC[O-].CC[O-].[Ti+4] uom=µM limit_qualifier=> numeric_value=100
compound=Cc1cc(O)cc(C)c1/C=C/c1cncc(C(=O)N(C)C)c1 uom=µM limit_qualifier=> numeric_value=25
compound="O=C1CC(c2cccc(Cl)c2)n2cccc21 (centres undefined)" uom=µM limit_qualifier=> numeric_value=100
compound=CC[C@H]1C=CCC[C@@]2(C[C@@H]3CC[C@@H]4[C@H](C(=O)OCCCCCCCCCCCCCCCC(=O)N(CCCN)C[C@@H](O)CCN)[C@]5(CCC[C@@H](C)O5)NC(=[N+]34)N2)O1 uom=µM limit_qualifier== numeric_value=0.793
compound=CC1=CC[C@@H]2C(C)(C)[C@@H](O)CC[C@@]2(C)[C@@H]1COc1ccc2ccc(=O)oc2c1 uom=µM limit_qualifier== numeric_value=27.4
compound=[Cl][Sn]([c]1ccccc1)[c]1ccccc1 uom=µM limit_qualifier== numeric_value=27.8
compound=CC(=O)C(=C(I)I)c1ccccc1 uom=µM limit_qualifier== numeric_value=72
compound=CC(=O)Nc1ccc(Nc2nc(=O)[nH]c(=O)[nH]2)cc1 uom=µM limit_qualifier=> numeric_value=100

====

# System: HT29 colon
# experiment.notes: NCI tumour cell line growth inhibition, 48 h
Reported TGI values for a set of compounds
experimental.readout: TGI (µM)

compound="COc1cc(C(C#N)NNC(=O)c2ccccc2O)ccc1O (configuration not stated)" uom=µM limit_qualifier=> numeric_value=100
compound="CCN(CC)C(=O)CCCCCCCCC1CO1 (configuration not stated)" uom=µM limit_qualifier=> numeric_value=100
compound=COc1cc2[nH]c(-c3ccccc3)cc(=O)c2cc1OC uom=µM limit_qualifier== numeric_value=56.7
compound=Cc1nnc2c3c(-c4ccccc4)c(-c4ccccc4)oc3nc(N(C)C)n12 uom=µM limit_qualifier=> numeric_value=100
compound=C/C(=N/O)c1cccc(Nc2nc3ccccc3c3[nH]c4ccccc4c23)c1 uom=µM limit_qualifier== numeric_value=6.51
compound=c1cc(-c2sc(-c3ccncc3)c(-c3ccncc3)c2-c2ccncc2)ccn1 uom=µM limit_qualifier== numeric_value=27.7
compound="OC1CCC(Oc2cccc3cnc(Nc4ccc5nc[nH]c5c4)nc23)CC1 (configuration not stated)" uom=µM limit_qualifier== numeric_value=9.15

====

# Test system: DMS 273 small cell lung
# experiment.notes: NCI tumour cell line growth inhibition, 48 h
Reported TGI values for a set of molecules
experimental.readout: TGI

molecule="CCCCCCCCCCCCC(SCCNC(=O)CCNC(=O)C(O)C(C)(C)COP(=O)(O)OP(=O)(O)OCC1OC(n2cnc3c(N)ncnc32)C(O)C1OP(=O)(O)O)C(=O)NCC(N)=O (stereo not drawn)" result="> 100 µM"
molecule=O=C(c1ccco1)N(C(=S)N1CCN(c2ccccc2)CC1)c1ccccc1 result="> 100 µM"
molecule="CCCCCCCCCCCC(=O)C1=C(O)C(O)CCC1=O (stereo not drawn)" result="21.3 µM"
molecule=CC(C)(C)N=CN1CCC(C(c2ccccc2)c2ccccc2)CC1 result="> 100 µM"
molecule=CCOC(=O)/C=C(/CN1C(=O)c2ccccc2C1=O)c1ccccc1 result="> 100 µM"
molecule="CC(O)C(NC(=O)C(CS)NC(=O)C(CO)NC(=O)C(CCCCN)NC(=O)C(Cc1c[nH]c2ccccc12)NC(=O)C(Cc1ccc(O)cc1)NC(=O)C(CS)NC(=O)C(N)Cc1ccccc1)C(N)=O (stereo not drawn)" result="49.4 µM"
molecule=Cc1cc2occ(C)c(=O)c2c2c1OC(C)(C)S2 result="> 100 µM"
molecule="Nc1nc(N)c2ncn(CC(CO)CC(c3ccccc3)P(=O)(O)O)c2n1 (stereo not drawn)" result="> 100 µM"
molecule=c1ccc(COc2ccc3[nH]c4c(ncc5[nH]c6ccccc6c54)c3c2)cc1 result="30.4 µM"
molecule=CC1=C2N3C[C@@H](n4c(=O)n(C)c(=O)n43)C23CCC1n1c(=O)n(C)c(=O)n13 result="> 100 µM"
molecule="CCOC(OC1=C(C#N)CCC1)C(CC)[Se]c1ccccc1 (stereo not drawn)" result="24.2 µM"
molecule=Cc1ccc(-n2c(C)nc3c2C(=O)c2ccccc2C3=O)cc1 result="> 100 µM"
molecule=CCCN(CCC)c1c([N+](=O)[O-])cc(S(N)(=O)=O)cc1[N+](=O)[O-] result="33.8 µM"
molecule=Cn1nnnc1[N-]Cc1ccccc1.[Au+].c1ccc([PH+](c2ccccc2)c2ccccc2)cc1 result="> 100 µM"
molecule=CN(C)CCNC(=O)c1cc([N+](=O)[O-])cc2ccc(-c3ccccc3)nc12 result="31.7 µM"
molecule="CC1(C)OC2C(=O)OC(COCc3ccccc3)C2O1 (stereo not drawn)" result="> 100 µM"
molecule="CCc1cccc(C)c1NC(=O)CC1Sc2ccccc2NC1=O (stereo not drawn)" result="> 100 µM"
molecule="C=CCN(N=O)C(=O)N(CCC)CCCC(NC(C)=O)C(=O)NCc1ccccc1 (stereo not drawn)" result="> 100 µM"

====

# System: CCRF-CEM leukemia
Labels: TRUE = active, FALSE = inactive

compound=COC(=O)c1ccc2c(c1)c1c(C)c3cnccc3c(C)c1n2C class_assignment=TRUE
compound=Cc1ccc(N2C(=O)C(Cl)=C(Nc3cccc(O)c3)C2=O)cc1Cl class_assignment=FALSE
compound="CCCCS(=N)(=O)CC[C@H](N)C(=O)O (stereo not given in full)" class_assignment=FALSE
compound=NC(N)=N/N=C/c1c(-c2cc(Cl)sc2Cl)nc2n1CCS2 class_assignment=FALSE
compound=O=C(/C=C/c1ccc([N+](=O)[O-])o1)NNC(=O)c1cc2ccccc2cc1O class_assignment=FALSE
compound=Cc1ccc(S(=O)(=O)NCCN2c3nc4ccccc4cc3Sc3cc4ccccc4nc32)cc1 class_assignment=FALSE
compound=CC(C)(C)C([O-])=C1C(=O)c2ccccc2C1=O.CC(C)(C)C([O-])=C1C(=O)c2ccccc2C1=O.CC[O-].CC[O-].[Ti+4] class_assignment=FALSE
compound=CCCCc1cc(O)ccc1O class_assignment=FALSE
compound=O=C1C=C(c2cc(Br)c(O)c(Br)c2)/C(=C/c2cc(Br)c(O)c(Br)c2)O1 class_assignment=FALSE
compound="CCN(CC)CC(C)Nc1ccc(C)c2sc3ccccc3c(=O)c12 (stereo not given)" class_assignment=FALSE
